B1: Tyrosine-protein kinase Lck, residues 63 to 120; numbered along this chain, P06239 (parent)
chain: DNLVIALHSYEPSHDGDLGFEKGEQLRILEQSGEWWKAQSLTTGQEGFIPFNFVAKAN

- Variants of: B1
- assay.notes: abundance fitness (aPCA) (normalised: wild type 0, dead -1); higher = more abundant; growth selection in yeast, the domain comes from the species named
- study.conditions: Homo sapiens
property.name: abundance fitness
One number for each entry.

// known answers, use as guide
V4M :: -0.173
W36P :: -0.298
F51L :: -0.221
G44H :: -0.321
P12Q :: -1
G47L :: -0.789

Batch request: abundance fitness for each of the following variants.
1. Q25D
2. Q25K
3. W35N
4. L26Y
5. K22I

1: -0.357; 2: 0.09; 3: -0.128; 4: -0.929; 5: -0.526

Dear reader, for each entry below, please note its abundance fitness.
1. Q31D
2. G23S
3. E24M
4. I49E
5. A55C
6. D1E
7. Q31C
8. W36Y

1. -0.011
2. -0.635
3. -0.673
4. -0.996
5. -0.141
6. -0.036
7. -0.097
8. -0.074

Could I get abundance fitness for every one of these entries?
1. G23T
2. D17T
3. L7T

1: -0.917; 2: -0.255; 3: -0.224

Could you tell me abundance fitness for each of these variants? They are listed below.
1. G44F
2. A6N
3. G33W
4. L41S
5. Q31A

[-0.394, -0.956, -0.929, -0.478, 0.032]
